# Protocol summary: Inhibition of beta-catenin-dependent canonical Wnt3A pathway in human HEK293T cells at 1 uM by luciferase reporter gene assay
# Assay type: cell-based
# Condition info: HEK-293T

[
  {
    "Molecule": "O=C1[C@@H]2[C@@H]3CC[C@@H](C3)[C@@H]2C(=O)N1c1ccc2c(c1)C(=O)N(c1cccc3cccnc13)C2=O",
    "Unit tag": "%",
    "inhibition": 15
  },
  {
    "Molecule": "O=C1[C@@H]2[C@@H]3CC[C@@H](C3)[C@@H]2C(=O)N1[C@H]1CC[C@H](C(=O)Nc2cccc3ncccc23)CC1",
    "Unit tag": "%",
    "inhibition": 68
  },
  {
    "Molecule": "O=C(Nc1cccc2cccnc12)c1ccc(N2C(=O)C3C(C2=O)[C@H]2CC[C@@H]3O2)cc1 (some centres undefined)",
    "Unit tag": "%",
    "inhibition": 49
  },
  {
    "Molecule": "CC(=O)c1ccc(NC(=O)[C@H]2CC[C@H](N3C(=O)[C@@H]4[C@@H]5CC[C@@H](C5)[C@@H]4C3=O)CC2)cn1",
    "Unit tag": "%",
    "inhibition": 56
  },
  {
    "Molecule": "O=C(Nc1cccc2ccccc12)c1ccc(N2C(=O)[C@@H]3[C@@H]4CC[C@@H](C4)[C@@H]3C2=O)cc1",
    "Unit tag": "%",
    "inhibition": 41
  },
  {
    "Molecule": "CCOc1ccccc1NC(=O)[C@H]1CC[C@H](N2C(=O)[C@@H]3[C@@H]4CC[C@@H](C4)[C@@H]3C2=O)CC1",
    "Unit tag": "%",
    "inhibition": 78
  },
  {
    "Molecule": "CC(=O)c1ccccc1NC(=O)[C@H]1CC[C@@H](N2C(=O)[C@@H]3[C@@H]4CC[C@@H](C4)[C@@H]3C2=O)CC1",
    "Unit tag": "%",
    "inhibition": 91
  },
  {
    "Molecule": "O=C1[C@@H]2[C@@H]3CC[C@@H](C3)[C@@H]2C(=O)N1[C@H]1CC[C@H](C(=O)Nc2ccccn2)CC1",
    "Unit tag": "%",
    "inhibition": 82
  },
  {
    "Molecule": "O=C1[C@@H]2[C@@H]3CC[C@@H](C3)[C@@H]2C(=O)N1[C@H]1CC[C@H](C(=O)Nc2ccncc2)CC1",
    "Unit tag": "%",
    "inhibition": 84
  },
  {
    "Molecule": "O=C1CCCc2cccc(NC(=O)[C@H]3CC[C@H](N4C(=O)[C@@H]5[C@@H]6CC[C@@H](C6)[C@@H]5C4=O)CC3)c21",
    "Unit tag": "%",
    "inhibition": 92
  },
  {
    "Molecule": "O=C(Nc1ccccc1O)c1ccc(N2C(=O)[C@@H]3[C@@H]4CC[C@@H](C4)[C@@H]3C2=O)cc1",
    "Unit tag": "%",
    "inhibition": 33
  },
  {
    "Molecule": "O=C1[C@@H]2[C@@H]3CC[C@@H](C3)[C@@H]2C(=O)N1[C@H]1CC[C@H](C(=O)Nc2cccc3ccncc23)CC1",
    "Unit tag": "%",
    "inhibition": 91
  },
  {
    "Molecule": "O=C1[C@@H]2[C@@H]3CC[C@@H](C3)[C@@H]2C(=O)N1[C@H]1CC[C@H](C(=O)Nc2cccc3cccnc23)CC1",
    "Unit tag": "%",
    "inhibition": 89
  },
  {
    "Molecule": "COc1ccc(NC(=O)c2ccc(N3C(=O)[C@@H]4[C@@H]5CC[C@@H](C5)[C@@H]4C3=O)cc2)cc1",
    "Unit tag": "%",
    "inhibition": 50
  }
]
